Assay: Single oral pharmacokinetics of the free form in suspension in male rats
Assay type: in vivo, male Sprague Dawley rats
Settings: Sprague Dawley, rat, plasma, po; male rats; free form; 30 mg/kg
MEASURED PROPERTY: Cmax (ng/mL)
Hi! Could you send only the number? It should be in ng/mL, unit omitted.

Provide one value: measured Cmax of Cc1ccc(NC(=O)C2(c3ccc4c(c3)OC(F)(F)O4)CC2)nc1-c1cccc(C(=O)O)c1 28200

----------
Test: Toxicokinetics in 14-day oral toxicity study in dogs
Conditions: male, beagle, dog, in vivo, 200 mg/kg/day, Study Day 14, Male, read-out: AUC0-24 hr
Description: There were no major differences noted in TK parameters between males and females, or when comparing study Day 1 to study Day 14.
MEASURED PROPERTY: AUC(0-t) (µg·h/mL)
Hi! Could you send only the number? It should be in µg·h/mL, unit omitted.

Provide one value: measured AUC(0-t) of Cc1ccc(NC(=O)C2(c3ccc4c(c3)OC(F)(F)O4)CC2)nc1-c1cccc(C(=O)O)c1 598

----------
Assay: in vivo
Details: male, beagle, dog, po, 200 mg/kg
MEASURED PROPERTY: half-life (h)
Hi! Could you send only the number? It should be in h, unit omitted.

Provide one value: measured half-life of Cc1ccc(NC(=O)C2(c3ccc4c(c3)OC(F)(F)O4)CC2)nc1-c1cccc(C(=O)O)c1 6.1

----------
Experiment: Tissue distribution in male rats after single oral dose of 75 mg/kg
Format: in vivo, male Sprague Dawley rats
Details: Sprague Dawley, rat; male rats; 75 mg/kg oral; Liver
MEASURED PROPERTY: Tmax (h)
Hi! Could you send only the number? It should be in h, unit omitted.

Provide one value: measured Tmax of Cc1ccc(NC(=O)C2(c3ccc4c(c3)OC(F)(F)O4)CC2)nc1-c1cccc(C(=O)O)c1 4

----------
Assay: Tissue distribution in male rats after single oral dose of 75 mg/kg
Assay type: in vivo, male Sprague Dawley rats
Conditions: male, Sprague Dawley, rat, liver, po, 75 mg/kg, male rats; 75 mg/kg oral; 4 hr; read-out: Tissue/Plasma Ratio, Liver
MEASURED PROPERTY: Kp at 4 hr
Enter the number alone.

Provide one value: measured Kp at 4 hr of Cc1ccc(NC(=O)C2(c3ccc4c(c3)OC(F)(F)O4)CC2)nc1-c1cccc(C(=O)O)c1 0.64

----------
Experiment: Toxicokinetics in 7-day dose range finding study in dogs
Format: in vivo
Conditions: 100 mg/kg/day, male
MEASURED PROPERTY: average plasma concentrations

Provide one value: measured average plasma concentrations of Cc1ccc(NC(=O)C2(c3ccc4c(c3)OC(F)(F)O4)CC2)nc1-c1cccc(C(=O)O)c1 16 µM

----------
Experiment: Toxicokinetics in 14-day oral toxicity study in dogs
Details: male, beagle, dog, in vivo, 200 mg/kg/day, Study Day 1, Male, read-out: Cmax
MEASURED PROPERTY: Cmax
Write the numeric value and append its unit.

Provide one value: measured Cmax of Cc1ccc(NC(=O)C2(c3ccc4c(c3)OC(F)(F)O4)CC2)nc1-c1cccc(C(=O)O)c1 [Compound 1] 77 µg/mL

----------
Experiment: Toxicokinetics in 14-day oral toxicity study in dogs
Conditions: female, beagle, dog, in vivo, 200 mg/kg/day, Study Day 14, Female
MEASURED PROPERTY: Tmax (h)
Hi! Could you send only the number? It should be in h, unit omitted.

Provide one value: measured Tmax of Cc1ccc(NC(=O)C2(c3ccc4c(c3)OC(F)(F)O4)CC2)nc1-c1cccc(C(=O)O)c1 3

----------
Experiment: Single oral pharmacokinetics of the free form in suspension in male rats
Assay type: in vivo, male Sprague Dawley rats
Details: Sprague Dawley, rat, plasma, oral; male rats; free form; 1 mg/kg; read-out: Clast
MEASURED PROPERTY: concentration at 48 hr
Write the numeric value and append its unit.

Provide one value: measured concentration at 48 hr of Cc1ccc(NC(=O)C2(c3ccc4c(c3)OC(F)(F)O4)CC2)nc1-c1cccc(C(=O)O)c1 28.8 ng/mL

----------
Target: Thromboxane A2 (TXA2) receptor (TP receptor) (Homo sapiens, UniProt P21731)
Sequence (P21731 whole entry): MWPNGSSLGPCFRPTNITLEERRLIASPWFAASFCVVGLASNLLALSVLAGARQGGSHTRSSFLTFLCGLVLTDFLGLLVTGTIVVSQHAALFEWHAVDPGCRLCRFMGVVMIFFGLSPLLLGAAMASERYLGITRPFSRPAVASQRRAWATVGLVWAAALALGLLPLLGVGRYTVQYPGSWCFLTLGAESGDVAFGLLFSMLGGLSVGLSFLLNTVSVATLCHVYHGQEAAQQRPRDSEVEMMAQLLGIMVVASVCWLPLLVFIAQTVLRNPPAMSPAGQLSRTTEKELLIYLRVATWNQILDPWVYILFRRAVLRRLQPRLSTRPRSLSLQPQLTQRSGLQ
MEASURED PROPERTY: Ki

For Thromboxane A2 (TXA2) receptor (TP receptor) (Homo sapiens, UniProt P21731), give the measured Ki of the entry Cc1ccc(NC(=O)C2(c3ccc4c(c3)OC(F)(F)O4)CC2)nc1-c1cccc(C(=O)O)c1 [Compound 1] ~3 µM

----------
Assay: Tissue distribution in male rats after single oral dose of 75 mg/kg
Format: in vivo, male Sprague Dawley rats
Settings: Sprague Dawley, rat; male rats; 75 mg/kg oral; Plasma; read-out: Clast
MEASURED PROPERTY: concentration at 48 hr (ng/mL)
Hi! Could you send only the number? It should be in ng/mL, unit omitted.

Provide one value: measured concentration at 48 hr of Cc1ccc(NC(=O)C2(c3ccc4c(c3)OC(F)(F)O4)CC2)nc1-c1cccc(C(=O)O)c1 [Compound 1] 542

----------
Assay: Toxicokinetics in 14-day oral toxicity study in rats
Conditions: female, Sprague Dawley, rat, in vivo, 600 mg/kg/day, Study Day 1, Female
MEASURED PROPERTY: Tmax

Provide one value: measured Tmax of Cc1ccc(NC(=O)C2(c3ccc4c(c3)OC(F)(F)O4)CC2)nc1-c1cccc(C(=O)O)c1 4 h

----------
Test: Toxicokinetics in 14-day oral toxicity study in rats
Conditions: male, Sprague Dawley, rat, in vivo, 600 mg/kg/day, Study Day 1, Male, read-out: AUC0-24 hr
MEASURED PROPERTY: AUC(0-t)
Write the numeric value and append its unit.

Provide one value: measured AUC(0-t) of Cc1ccc(NC(=O)C2(c3ccc4c(c3)OC(F)(F)O4)CC2)nc1-c1cccc(C(=O)O)c1 2660 µg·h/mL

----------
Assay: Oral pharmacokinetics of Compound 1 in fed or fasted male dogs at 10 mg/kg
Format: in vivo, male beagle dogs
Details: male, beagle, dog, plasma, po, 10 mg/kg, male dogs; Fasted
MEASURED PROPERTY: Tmax (h)
Hi! Could you send only the number? It should be in h, unit omitted.

Provide one value: measured Tmax of Cc1ccc(NC(=O)C2(c3ccc4c(c3)OC(F)(F)O4)CC2)nc1-c1cccc(C(=O)O)c1 1.5

----------
Experiment: Single oral pharmacokinetics of the free form in suspension in male rats
Format: in vivo, male Sprague Dawley rats
Conditions: Sprague Dawley, rat, plasma, po; male rats; free form; 150 mg/kg
MEASURED PROPERTY: Cmax

Provide one value: measured Cmax of Cc1ccc(NC(=O)C2(c3ccc4c(c3)OC(F)(F)O4)CC2)nc1-c1cccc(C(=O)O)c1 54.7 µg/mL

----------
Experiment: Acute oral toxicity study in mice
Details: mouse, in vivo, po
MEASURED PROPERTY: MTD at 14 days

Provide one value: measured MTD at 14 days of Cc1ccc(NC(=O)C2(c3ccc4c(c3)OC(F)(F)O4)CC2)nc1-c1cccc(C(=O)O)c1 > 2000 mg/kg

----------
Test: Tissue distribution in male rats after single oral dose of 75 mg/kg
Assay type: in vivo, male Sprague Dawley rats
Conditions: male, Sprague Dawley, rat, lung, po, 75 mg/kg, male rats; 75 mg/kg oral; 1 hr; read-out: Tissue/Plasma Ratio, Lung
MEASURED PROPERTY: Kp at 1 h
Enter the number alone.

Provide one value: measured Kp at 1 h of Cc1ccc(NC(=O)C2(c3ccc4c(c3)OC(F)(F)O4)CC2)nc1-c1cccc(C(=O)O)c1 [Compound 1] 0.19

----------
Experiment: Tissue distribution in male rats after single oral dose of 75 mg/kg
Type: in vivo, male Sprague Dawley rats
Details: Sprague Dawley, rat; male rats; 75 mg/kg oral; Lung
MEASURED PROPERTY: AUC(0-inf) (µg·h/mL)
Hi! Could you send only the number? It should be in µg·h/mL, unit omitted.

Provide one value: measured AUC(0-inf) of Cc1ccc(NC(=O)C2(c3ccc4c(c3)OC(F)(F)O4)CC2)nc1-c1cccc(C(=O)O)c1 187

----------
Experiment: Single oral pharmacokinetics of the free form in suspension in male rats
Format: in vivo, male Sprague Dawley rats
Conditions: Sprague Dawley, rat, plasma, po; male rats; free form suspension; nominal dose 300 mg/kg; mean (SD)
MEASURED PROPERTY: AUC(0-inf) (µg·h/mL)
Hi! Could you send only the number? It should be in µg·h/mL, unit omitted.

Provide one value: measured AUC(0-inf) of Cc1ccc(NC(=O)C2(c3ccc4c(c3)OC(F)(F)O4)CC2)nc1-c1cccc(C(=O)O)c1 [Compound 1] 2530

----------
Target: hERG (Homo sapiens, UniProt Q12809)
Sequence (Q12809 whole entry): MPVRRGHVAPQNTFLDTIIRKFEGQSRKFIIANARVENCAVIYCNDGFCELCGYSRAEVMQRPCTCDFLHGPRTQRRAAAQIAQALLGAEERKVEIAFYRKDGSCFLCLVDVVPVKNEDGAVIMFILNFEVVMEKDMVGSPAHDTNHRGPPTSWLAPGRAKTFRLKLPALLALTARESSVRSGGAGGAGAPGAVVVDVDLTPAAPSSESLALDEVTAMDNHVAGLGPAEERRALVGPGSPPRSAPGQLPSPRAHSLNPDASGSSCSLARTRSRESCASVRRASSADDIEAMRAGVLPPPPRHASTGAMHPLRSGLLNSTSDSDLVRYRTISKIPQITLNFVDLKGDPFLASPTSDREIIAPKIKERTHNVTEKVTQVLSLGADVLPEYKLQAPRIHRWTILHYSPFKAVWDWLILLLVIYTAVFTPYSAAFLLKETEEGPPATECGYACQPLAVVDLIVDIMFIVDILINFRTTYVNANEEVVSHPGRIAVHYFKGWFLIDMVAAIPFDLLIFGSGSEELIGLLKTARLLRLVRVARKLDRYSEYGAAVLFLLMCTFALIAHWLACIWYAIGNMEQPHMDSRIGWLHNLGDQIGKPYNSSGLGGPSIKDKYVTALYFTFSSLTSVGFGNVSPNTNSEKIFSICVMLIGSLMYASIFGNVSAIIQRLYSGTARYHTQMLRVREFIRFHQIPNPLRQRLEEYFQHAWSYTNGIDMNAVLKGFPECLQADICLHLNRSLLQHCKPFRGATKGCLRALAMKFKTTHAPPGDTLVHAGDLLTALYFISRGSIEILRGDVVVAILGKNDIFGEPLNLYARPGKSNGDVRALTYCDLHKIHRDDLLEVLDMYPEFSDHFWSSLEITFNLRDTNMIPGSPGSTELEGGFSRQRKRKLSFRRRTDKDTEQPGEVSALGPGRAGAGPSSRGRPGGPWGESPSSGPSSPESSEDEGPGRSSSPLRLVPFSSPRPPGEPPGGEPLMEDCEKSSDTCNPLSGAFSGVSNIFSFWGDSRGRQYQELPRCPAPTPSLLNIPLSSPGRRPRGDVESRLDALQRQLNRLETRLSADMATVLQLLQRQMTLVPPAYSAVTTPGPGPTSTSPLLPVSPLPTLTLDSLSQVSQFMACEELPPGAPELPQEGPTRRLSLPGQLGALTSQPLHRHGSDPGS
Assay: hERG channel competitive binding (3H-astemizole)
Settings: probe 3H-astemizole
MEASURED PROPERTY: inhibition at 10 µM (%)
Hi! Could you send only the number? It should be in %, unit omitted.

Provide one value: measured inhibition at 10 µM of Cc1ccc(NC(=O)C2(c3ccc4c(c3)OC(F)(F)O4)CC2)nc1-c1cccc(C(=O)O)c1 4
